The origin of these recorded values is patent US12528814B2.

Biological target: IRAK4 (Homo sapiens (Human))
Sequence (Q9NWZ3 whole entry): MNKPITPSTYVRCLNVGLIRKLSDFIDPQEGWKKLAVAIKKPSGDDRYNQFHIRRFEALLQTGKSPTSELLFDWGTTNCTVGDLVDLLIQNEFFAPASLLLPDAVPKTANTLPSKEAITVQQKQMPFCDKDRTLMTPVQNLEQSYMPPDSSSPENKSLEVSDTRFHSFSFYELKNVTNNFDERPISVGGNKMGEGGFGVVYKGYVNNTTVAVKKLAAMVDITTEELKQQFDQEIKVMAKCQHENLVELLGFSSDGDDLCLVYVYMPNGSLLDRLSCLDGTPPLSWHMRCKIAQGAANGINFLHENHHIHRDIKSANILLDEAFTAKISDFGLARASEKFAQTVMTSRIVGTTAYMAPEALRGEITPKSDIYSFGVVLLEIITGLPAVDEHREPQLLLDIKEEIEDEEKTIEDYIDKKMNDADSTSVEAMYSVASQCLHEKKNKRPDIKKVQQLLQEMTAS
Assay: IRAK4 Degradation HiBiT Assay
Conditions: read-out: Cellular IRAK4 HiBiT: DC50; Table 4; HiBiT-tagged Jurkat cells, 4 hrs
Property Label: DC50 (nM)
Numbers only, in nM.

Solved cases below.
CNc1cc(-c2ccc3cc(C#N)cnn23)ncc1-c1nnc([C@H]2CC[C@H](NC(=O)CCOCCOc3cc(-c4scnc4C)ccc3CNC(=O)[C@@H]3C[C@@H](O)CN3C(=O)[C@@H](NC(=O)C3(F)CC3)C(C)(C)C)CC2)s1 : 72.8
CC(C)Nc1cc(-c2ccc3cc(C#N)cnn23)ncc1-c1nnc(N2CCN(C(=O)C3CCN(CC4CCN(c5ccc(-c6nn(C7CCC(=O)NC7=O)c(=O)n6C)cc5)CC4)CC3)CC2)s1 (stereo not shown) : 327
CNc1cc(-c2ccc3cc(C#N)cnn23)ncc1-c1nnc([C@H]2CC[C@H](NC(=O)[C@H]3C[C@@H](OCCNc4cccc5c4C(=O)N(C4CCC(=O)NC4=O)C5=O)C3)CC2)s1 (stereo partly shown) : 12.6
CC(C)Nc1cc(-c2ccc3cc(C#N)cnn23)ncc1-c1nnc(N2CCN(C(=O)CCCCCNc3ccc4c(c3)C(=O)N(C3CCC(=O)NC3=O)C4=O)CC2)s1 (stereo not shown) : 74.6
Cc1ncsc1-c1ccc(CNC(=O)[C@@H]2C[C@@H](O)CN2C(=O)[C@@H](NC(=O)C2(F)CC2)C(C)(C)C)c(OCCCCCCCC(=O)N2CCN(c3nnc(-c4cnc(-c5ccc6cc(C#N)cnn56)cc4NC(C)C)s3)CC2)c1 : 1170

# context switch: different compound, same DC50
Documented DC50 of `Cc1ncsc1-c1ccc([C@H](C)NC(=O)[C@@H]2C[C@@H](O)CN2C(=O)[C@@H](NC(=O)CCCCCCCCCC(=O)N2CCN(c3nnc(-c4cnc(-c5ccc6cc(C#N)cnn56)cc4NC(C)C)s3)CC2)C(C)(C)C)cc1` : 128
